Measured on: T1, human common cytokine receptor γ-chain (IL-2Rγ) (human, UniProt P31785 23-262, limits assumed)
T1 construct: Recombinant human IL-2Rγ protein, coated (ELISA) or amine-coupled to a CM5 chip (SPR); also called hu IL-2R; CD132
T1 sequence: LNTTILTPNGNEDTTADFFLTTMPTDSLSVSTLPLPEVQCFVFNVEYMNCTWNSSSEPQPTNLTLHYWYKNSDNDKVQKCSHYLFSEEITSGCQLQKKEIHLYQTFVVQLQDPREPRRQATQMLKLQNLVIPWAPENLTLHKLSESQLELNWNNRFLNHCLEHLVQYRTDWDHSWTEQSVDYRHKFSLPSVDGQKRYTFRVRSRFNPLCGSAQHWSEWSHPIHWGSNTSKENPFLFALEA
Assay comment: P.E. off-rate SPR
Provide the recorded koff for the entries that follow.
Could you give me the number in s⁻¹? Just the number is fine.

Recorded koff of FJ1427_P035MP07A08 (VHH, tested as periplasmic extract; also called Clone nr; 633) VHH: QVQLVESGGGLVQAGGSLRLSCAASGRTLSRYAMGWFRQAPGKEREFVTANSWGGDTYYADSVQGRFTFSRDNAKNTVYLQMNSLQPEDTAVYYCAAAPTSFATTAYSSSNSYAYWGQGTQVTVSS , please.
0.00255

Recorded koff of FJ1427_P035MP07D05 (VHH, tested as periplasmic extract; also called Clone nr) VHH: QVQLVESGGGLVQAGGSLRLSCAASGRTLSRNAMGWFRQAPGKEREFVAADSWGGDTFYADSVEGRFTFSRDNAKNAVYLQMNSLQPEDTAVYYCAGAPTSFATTAYSSSNSYRYWGQGTQVTVSS , please.
0.00153

Recorded koff of FJ1427_P035MP07A07 (VHH, tested as periplasmic extract; also called Clone nr) VHH: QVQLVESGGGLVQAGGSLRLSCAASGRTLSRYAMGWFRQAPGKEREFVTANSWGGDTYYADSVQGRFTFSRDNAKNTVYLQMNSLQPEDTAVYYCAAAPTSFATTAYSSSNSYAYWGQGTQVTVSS , please.
0.00173

Recorded koff of FJ1427_P035MP07G02 (VHH, tested as periplasmic extract; also called Clone nr) VHH: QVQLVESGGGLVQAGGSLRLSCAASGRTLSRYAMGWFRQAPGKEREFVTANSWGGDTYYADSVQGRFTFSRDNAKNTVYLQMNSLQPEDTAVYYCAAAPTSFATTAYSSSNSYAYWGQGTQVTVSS , please.
0.00365

Recorded koff of FJ1427_P035MP07C05 (VHH, tested as periplasmic extract; also called Clone nr; 611) VHH: EVQLVESGGGLVQPGGSLRLSCAASGRALSRLAMGWFRQAPGKEREFVVASSWGDDTFYADSVKGRFTFSRDNAKNTVYLQMNSLQPGDTAVYYCAAAPTSFATTAYSSSNSYAYWGQGTQVTVSS , please.
0.00182

Recorded koff of FJ1427_P035MP07B03 (VHH, tested as periplasmic extract; also called Clone nr) VHH: EVQLVESGGGLVQAGGSLRLSCAASGRALSRLAMGWFRQAPGKEREFVVASSWGDDTFYADSVKGRFTFSRDNAKNTVYLQMNSLQPGDTAVYYCAAAPTSFATTAYSSSNSYAYWGQGTQVTVSS , please.
0.00278

Recorded koff of FJ1427_P035MP07A04 (VHH, tested as periplasmic extract; also called Clone nr) VHH: QVQLVESGGGLVQAGGSLRLSCAASGRTLSRYAMGWFRQGPGKEREFVAADSWGGDTYYDDSVEGRFTFSRDITKNAVYLQMNSLQPEDTAVYYCAAAPTSFATTAYSSSNSYAYWGQGTQVTVSS , please.
0.00126

Recorded koff of FJ1427_P035MP07B11 (VHH, tested as periplasmic extract; also called Clone nr) VHH: QVQLVESGGGLVQAGGSLRLSCAASGRALSRLAMGWFRQAPGKEREFVVASSWGDDTFYADSVEGRFTFSRDNAKSTVYLQMNSLQPGDTAVYYCAAAPTSFATTAYSSSNSYAYWGQGTQVTVPS , please.
0.00214
